meta.source: patent US20180289678A1

# measurement notes: Study .3: single dose, cross-over, food effect study in healthy volunteers, pharmacokinetic parameters
# Format: in vivo, human
# assay conditions: human, plasma, oral, 50 mg, 50 mg single dose, Study .3/fasted; read-out: AUC0-inf Median
parameter measured: AUC(0-inf) (µM·h)
Give bare numbers, in µM·h.

Requested field: AUC(0-inf). Item: OC[C@H]1O[C@@H](c2ccc(Cl)c(Cc3ccc(O[C@H]4CCOC4)cc3)c2)[C@H](O)[C@@H](O)[C@@H]1O [Compound (I.9)]
7.93

----------
# measurement notes: Study .4: 4-week treatment of diabetic patients, once daily, pharmacokinetic parameters
# Assay type: in vivo, human
# assay conditions: human, plasma, oral, 25 mg, 25 mg single dose, Study .4, fasted; read-out: AUC0-inf Median
parameter measured: AUC(0-inf) (µM·h)
Numbers only, in µM·h.

Requested field: AUC(0-inf). Item: OC[C@H]1O[C@@H](c2ccc(Cl)c(Cc3ccc(O[C@H]4CCOC4)cc3)c2)[C@H](O)[C@@H](O)[C@@H]1O [Compound (I.9)]
4.27

----------
# measurement notes: Study .2: multiple rising dose trial in diabetic patients, once daily for 8 days, pharmacokinetic parameters
# Assay type: in vivo, human
# assay conditions: human, plasma, oral, 10 mg, 10 mg once daily, steady state, Study .2, fasted; read-out: AUCτ,ss gMean
parameter measured: AUC (µM·h)
Answers are plain numbers, in µM·h.

Requested field: AUC. Item: OC[C@H]1O[C@@H](c2ccc(Cl)c(Cc3ccc(O[C@H]4CCOC4)cc3)c2)[C@H](O)[C@@H](O)[C@@H]1O [Compound (I.9)]
2

----------
# measurement notes: Pharmacokinetic profile in fasting humans, ranges over Studies .1 to .5
# Assay type: in vivo
# assay conditions: human, plasma, oral, 10 mg, dose of 10.0 mg, read-out: Cmax
parameter measured: Cmax

Requested field: Cmax. Item: "OC[C@H]1O[C@@H](c2ccc(Cl)c(Cc3ccc(O[C@H]4CCOC4)cc3)c2)[C@H](O)[C@@H](O)[C@@H]1O"
143 to 796 nM

----------
# measurement notes: Pharmacokinetic profile in fasting humans, ranges over Studies .1 to .5
# Type: in vivo
# assay conditions: human, plasma, oral, 5 mg, single dose of 5.0 mg, read-out: Cmax
parameter measured: Cmax

Requested field: Cmax. Item: OC[C@H]1O[C@@H](c2ccc(Cl)c(Cc3ccc(O[C@H]4CCOC4)cc3)c2)[C@H](O)[C@@H](O)[C@@H]1O [Compound (I.9)]
123 to 230 nM

----------
# measurement notes: Study .4: 4-week treatment of diabetic patients, once daily, pharmacokinetic parameters
# Type: in vivo, human
# assay conditions: human, plasma, oral, 10 mg, 10 mg single dose, Study .4, fasted; read-out: AUC0-inf gMean
parameter measured: AUC(0-inf)
Could you kindly put the unit after your number?

Requested field: AUC(0-inf). Item: "OC[C@H]1O[C@@H](c2ccc(Cl)c(Cc3ccc(O[C@H]4CCOC4)cc3)c2)[C@H](O)[C@@H](O)[C@@H]1O"
1.72 µM·h

----------
# measurement notes: Study .4: 4-week treatment of diabetic patients, once daily, pharmacokinetic parameters
# Type: in vivo, human
# assay conditions: human, plasma, oral, 10 mg, 10 mg single dose, Study .4, fasted; read-out: tmax Median
parameter measured: Tmax (h)
Answers are plain numbers, in h.

Requested field: Tmax. Item: OC[C@H]1O[C@@H](c2ccc(Cl)c(Cc3ccc(O[C@H]4CCOC4)cc3)c2)[C@H](O)[C@@H](O)[C@@H]1O [Compound (I.9)]
1.5
